For each record, write down the corresponding growth.
System: M14 melanoma
assay text: NCI-60 one-dose screen, 48 h (100 = growth as untreated, 0 = no growth, -100 = all killed)
cond: 10 µM
About 83,000 compounds went through this panel and 20% of them were active in at least one assay; those are over-represented in the sample as a whole.
State just the number; it will be interpreted in %.

Reported growth for CCCCc1ccc(NC(=O)N(CCCl)N=O)cc1 : what is it?
99.2

Would you kindly repeat that for CN1CCN(c2nc(-c3cccnc3)nc3sc4c(c23)CCCCCC4)CC1 ?
101

Try this compound too: Cc1nn2c(/C=C3/C(=O)Nc4ccc(Cl)cc43)c(-c3ccccc3)nc2s1
55.4

Same read-out for O=S(=O)(NC1c2ccccc2Oc2ccccc21)c1ccccc1 ?
98.7

Now the same for CC(=O)Nc1nc(C)c(C(=O)N/N=C/c2cccn2C)s1
115

Same question for C/C(=N\NC(=S)N1CCCC1)c1ccccn1 please.
6.19

// query: O=C(Nc1cccc(Cl)c1)OCC(COC(=O)Nc1cccc(Cl)c1)(COC(=O)Nc1cccc(Cl)c1)[N+](=O)[O-]
24.4

// next record CCOC(=O)Cn1nnc(-c2ccc(OCc3ccccc3F)cc2)n1
75.1
